# System: Enterococcus sp.
# run-description: in vitro antibacterial evaluation, MIC by broth dilution
# Type: cell-based
# condition-details: Enterococcus faecalis (GC 4554); broth dilution, 18 hours at 35° C.
# From the text: Methods for in vitro Antibacterial Evaluation (Table 1) […]
reported-property: MIC Enterococcus faecalis (GC 4554) (µg/mL)
Provide the reading as a plain figure in µg/mL.

## Input I would be grateful if you could share the reported MIC Enterococcus faecalis (GC 4554) for N=C1NCC(C(O)C2NC(=O)C(Cc3ccc(OC4OC(CO)C(OC5OC(CO)C(O)C6OC7(OC56)C5CC6CC(C5)CC7C6)C(O)C4O)cc3)NC(=O)C(CC3CCCCC3)NC(=O)CNC(=O)C(CO)NC(=O)C(C(O)C3CNC(=N)N3C3OC(CO)C(O)C(O)C3O)NC2=O)N1 (stereo not shown) [Example 106a] .
## Output 8

## Input Which value of MIC Enterococcus faecalis (GC 4554) has been reported for CC(c1ccccc1)C1NC(=O)CNC(=O)C(CO)NC(=O)C(C(O)C2CNC(=N)N2C2OC(CO)C(O)C(O)C2O)NC(=O)C(C(O)C2CNC(=N)N2)NC(=O)C(Cc2ccc(OC3OC(CO)C(OC4OC5COC(c6ccc7ccccc7c6)OC5C(O)C4O)C(O)C3O)cc2)NC1=O (stereo not shown) in the records?
## Output 1

## Input GET /values?readout=MIC Enterococcus faecalis (GC 4554)&item= CSc1ccc(C2OCC3OC(OC4C(CO)OC(Oc5ccc(CC6NC(=O)C(C(C)c7ccccc7)NC(=O)CNC(=O)C(CO)NC(=O)C(C(O)C7CNC(=N)N7C7OC(CO)C(O)C(O)C7O)NC(=O)C(C(O)C7CNC(=N)N7)NC6=O)cc5)C(O)C4O)C(O)C(O)C3O2)cc1 (stereo not shown)
## Output 4

## Input Can you share its MIC Enterococcus faecalis (GC 4554)? I mean this compound: CC(c1ccccc1)C1NC(=O)CNC(=O)C(CO)NC(=O)C(C(O)C2CN(Cc3ccccc3)C(=NCc3ccccc3)N2C2OC(CO)C(O)C(O)C2O)NC(=O)C(C(O)C2CN(Cc3ccccc3)C(=NCc3ccccc3)N2Cc2ccccc2)NC(=O)C(Cc2ccc(OC3OC(CO)C(OC4OC5COC6(OC5C(O)C4O)C4CC5CC(C4)CC6C5)C(O)C3O)cc2)NC1=O (stereo not shown)
## Output 16

## Input # query: MIC Enterococcus faecalis (GC 4554) of entry CC(c1ccccc1)C1NC(=O)CNC(=O)C(CO)NC(=O)C(C(O)C2CNC(=N)N2C2OC(CO)C(O)C(O)C2O)NC(=O)C(C(O)C2CNC(=N)N2)NC(=O)C(Cc2ccc(OC3OC(CO)C(OC4OC5COC(CC(C)(C)C)OC5C(O)C4O)C(O)C3O)cc2)NC1=O (stereo not shown)
## Output 2

Shifting focus to the compound that follows.
## Input // returns reported MIC Enterococcus faecalis (GC 4554) for input CC(c1ccccc1)C1NC(=O)CNC(=O)C(CO)NC(=O)C(C(O)C2CNC(=N)N2C2OC(CO)C(O)C(O)C2O)NC(=O)C(C(O)C2CNC(=N)N2)NC(=O)C(Cc2ccc(OC3OC(CO)C(OC4OC5COC(CC67CC8CC(CC(C8)C6)C7)OC5C(O)C4O)C(O)C3O)cc2)NC1=O (stereo not shown)
## Output 2

---

# Test system: Streptococcus sp.
# run-description: in vitro antibacterial evaluation, MIC by broth dilution
# Assay type: cell-based
# condition-details: broth dilution, 18 hours at 35° C.; strain GC 4564
Numbered stars: 1 amine (or outer) side, 2 acyl side, 3 side chain; on linkers, the order of the positions; unused ones are H or OH. Square brackets hold non-standard residues; d marks the D form. Peptide text beside a SMILES is read from it. * marks the point of attachment. ξ: configuration not given here. X1 = N=C1NCC(C(O)C(N[*:1])C(=O)[*:2])N1C1OC(CO)C(O)C(O)C1O; ξEnduracididine(βξ-OH,4'ξ) = N=C1NCC(C(O)C(N)C(=O)O)N1; X2 = OCC1OC(OC2C(CO)OC(*)C(O)C2O)C(O)C(O)C1O
With a cut-off of 2 µg/mL, any MIC Streptococcus agalactiae (GC 4564) strictly below it is called Fulfilled; any MIC Streptococcus agalactiae (GC 4564) meeting it or above is called Not fulfilled.

## Input Does this molecule meet the criterion MIC Streptococcus agalactiae (GC 4564) < 2 µg/mL? N=C1NCC(C(O)C2NC(=O)C(Cc3ccc(OC4OC(CO)C(OC5OC(CO)C(O)C(O)C5O)C(O)C4O)cc3)NC(=O)C(Cc3ccccc3)NC(=O)CNC(=O)C(CO)NC(=O)C(C(O)C3CNC(=N)N3C3OC(CO)C(O)C(O)C3O)NC2=O)N1 (stereo not drawn) [Example 282] (cyclo(GFY(X2)[ξEnduracididine(βξ-OH,4'ξ)][X1]S); configuration not given here)
## Output Not fulfilled

## Input Lab note: confirm whether the reported MIC Streptococcus agalactiae (GC 4564) for this molecule is below 2 µg/mL, equality not counting. molecule: CC(c1ccccc1)C1NC(=O)CNC(=O)C(CO)NC(=O)C(C(O)C2CNC(=N)N2C2OC(CO)C(O)C(O)C2O)NC(=O)C(C(O)C2CNC(=N)N2)NC(=O)C(Cc2ccc(OC3OC(CO)C(OC4OC(CO)C(O)C(O)C4O)C(O)C3O)c(N)c2)NC1=O (stereo not shown) [Example 287]
## Output Not fulfilled

## Input Consider CC(c1ccccc1)C1NC(=O)CNC(=O)C(CO)NC(=O)C(C(O)C2CNC(=N)N2C2OC(CO)C(O)C(O)C2O)NC(=O)C(C(O)C2CNC(=N)N2)NC(=O)C(Cc2ccc(OC3OC(CO)C(OC4OC(COC(=O)C(c5ccccc5)c5ccccc5)C(O)C(O)C4O)C(O)C3O)cc2)NC1=O (stereo not shown) [Example 96c] . Does its MIC Streptococcus agalactiae (GC 4564) lie strictly below 2 µg/mL?
## Output Fulfilled

## Input Is MIC Streptococcus agalactiae (GC 4564) strictly under 2 µg/mL for the entry CC(C)CCC(=O)OC1C(OC2C(CO)OC(Oc3ccc(CC4NC(=O)C(C(C)c5ccccc5)NC(=O)CNC(=O)C(CO)NC(=O)C(C(O)C5CNC(=N)N5C5OC(CO)C(O)C(O)C5O)NC(=O)C(C(O)C5CNC(=N)N5)NC4=O)cc3)C(O)C2O)OC(CO)C(O)C1O (stereo not shown) [Example 270a] ?
## Output Fulfilled

## Input Report whether reported MIC Streptococcus agalactiae (GC 4564) is lower than 2 µg/mL (strictly) for CC(C)CC(=O)OC1C(O)C(CO)OC(OC2C(CO)OC(Oc3ccc(CC4NC(=O)C(C(C)c5ccc(Cl)cc5)NC(=O)CNC(=O)C(CO)NC(=O)C(C(O)C5CNC(=N)N5C5OC(CO)C(O)C(O)C5O)NC(=O)C(C(O)C5CNC(=N)N5)NC4=O)cc3)C(O)C2O)C1O (stereo not shown) [Example 262b]
## Output Fulfilled

New cases:
## Input For this molecule, is MIC Streptococcus agalactiae (GC 4564) lower than 2 µg/mL? N=C1NCC(C(O)C2NC(=O)C(Cc3ccc(OC4OC(CO)C(OC5OC6COC7(OC6C6OC8(OC56)C5CC6CC(C5)CC8C6)C5CC6CC(C5)CC7C6)C(O)C4O)cc3)NC(=O)C(CC3CCCCC3)NC(=O)CNC(=O)C(CO)NC(=O)C(C(O)C3CNC(=N)N3C3OC(CO)C(O)C(O)C3O)NC2=O)N1 (stereo not shown) [Example 106b]
## Output Fulfilled

## Input Take the molecule CCCC(CCC)C(=O)OCC1OC(OC2C(CO)OC(Oc3ccc(CC4NC(=O)C(C(C)c5ccccc5)NC(=O)CNC(=O)C(CO)NC(=O)C(C(O)C5CNC(=N)N5C5OC(CO)C(O)C(O)C5O)NC(=O)C(C(O)C5CNC(=N)N5)NC4=O)cc3)C(O)C2O)C(O)C(O)C1O (stereo not shown) [Example 99c] and say whether its MIC Streptococcus agalactiae (GC 4564) is less than 2 µg/mL.
## Output Fulfilled

## Input Determine whether this molecule shows MIC Streptococcus agalactiae (GC 4564) lower than 2 µg/mL (ties excluded): Cc1ccc(CC2OCC3OC(OC4C(CO)OC(Oc5ccc(CC6NC(=O)C(C(C)c7ccccc7)NC(=O)CNC(=O)C(CO)NC(=O)C(C(O)C7CNC(=N)N7C7OC(CO)C(O)C(O)C7O)NC(=O)C(C(O)C7CNC(=N)N7)NC6=O)cc5)C(O)C4O)C(O)C(O)C3O2)cc1 (stereo not shown) [Example 119]
## Output Fulfilled

## Input Lab note: MIC Streptococcus agalactiae (GC 4564) threshold 2 µg/mL. Does this molecule come in strictly under it? CC(C)CC(=O)OC1C(O)C(CO)OC(OC2C(CO)OC(Oc3ccc(CC4NC(=O)C(C(C)c5cccc(F)c5)NC(=O)CNC(=O)C(CO)NC(=O)C(C(O)C5CNC(=N)N5C5OC(CO)C(O)C(O)C5O)NC(=O)C(C(O)C5CNC(=N)N5)NC4=O)cc3)C(O)C2O)C1O (stereo not shown) [Example 264b]
## Output Not fulfilled

## Input Determine if CC(C)CC(=O)OC1C(OC2C(CO)OC(Oc3ccc(CC4NC(=O)C(C(C)c5cccs5)NC(=O)CNC(=O)C(CO)NC(=O)C(C(O)C5CNC(=N)N5C5OC(CO)C(O)C(O)C5O)NC(=O)C(C(O)C5CNC(=N)N5)NC4=O)cc3)C(O)C2O)OC(CO)C(O)C1O (stereo not shown) [Example 265a] shows MIC Streptococcus agalactiae (GC 4564) strictly lower than 2 µg/mL.
## Output Not fulfilled

## Input Find out if reported MIC Streptococcus agalactiae (GC 4564) for N=C1NCC(C(O)C2NC(=O)C(Cc3ccc(OC4OC(CO)C(OC5OC(CO)C(O)C6OC7(OC56)C5CC6CC(C5)CC7C6)C(O)C4O)cc3)NC(=O)C(CC3CCCCC3)NC(=O)CNC(=O)C(CO)NC(=O)C(C(O)C3CNC(=N)N3C3OC(CO)C(O)C(O)C3O)NC2=O)N1 (stereo not shown) [Example 106a] is less than 2 µg/mL
## Output Fulfilled

## Input Does CC(c1ccccc1)C1NC(=O)CNC(=O)C(CO)NC(=O)C(C(O)C2CNC(=N)N2C2OC(CO)C(O)C(O)C2O)NC(=O)C(C(O)C2CNC(=N)N2)NC(=O)C(Cc2ccc(OC3OC(CO)C(OC4OC5COC(Cc6ccc(F)cc6)OC5C(O)C4O)C(O)C3O)cc2)NC1=O (stereo not shown) [Example 121] have MIC Streptococcus agalactiae (GC 4564) strictly under 2 µg/mL?
## Output Fulfilled
